- experiment: Comparison of solubility of the crystalline forms in water (UV absorbance of saturated solution)
- Assay type: physicochemical
- test-conditions: saturated water solution (10mg in 1ml of water, stirred 1 hour, filtered), diluted 10 times; ultraviolet spectrophotometer
A collection of compounds and their measured Absorbance (Abs)
# output: bare number, implied unit Abs

The examples below pair each entry with its known result.
{"compound": "Clc1ccc(Oc2nn3nnnc3c3ccccc23)cc1 [Crystalline form A]", "endpoint-label": "Absorbance (Abs)", "unit-name": "Abs", "val": 0.0407}
{"compound": "Clc1ccc(Oc2nn3nnnc3c3ccccc23)cc1 [Crystalline form D]", "endpoint-label": "Absorbance (Abs)", "unit-name": "Abs", "val": 0.134}
{"compound": "Clc1ccc(Oc2nn3nnnc3c3ccccc23)cc1 [Crystalline form B]", "endpoint-label": "Absorbance (Abs)", "unit-name": "Abs", "val": 0.279}

Here is another compound to look at.
I would be grateful if you could share the reported Absorbance (Abs) for Clc1ccc(Oc2nn3nnnc3c3ccccc23)cc1 [Crystalline form C] .
0.326
